- Procedure summary: Toxicity liver stage against HepG2, at 10uM
- Assay type: cell-based
- Design: test concentration 10 uM, cell line HepG2-A16-CD81EGFP
- Condition summary: human, HepG2-A16-CD81EGFP cells; read-out: INHIBITION
Endpoint: cytotoxicity at 10 µM (%)

>>> readout_number("COc1ccc([C@@H]2CN(c3cc(C(=O)O)ccn3)C[C@H]2N(C)C)cc1")
10.3
>>> readout_number("CCc1noc(C(C)N2CCC(O)CC2)n1 (stereo unspecified)")
0.26
>>> readout_number("O=S1(=O)CCC(N(CCc2ccc3c(c2)CCO3)C2CC2)C1 (stereo unspecified)")
-0.532
>>> readout_number("CNc1nc(C(=O)NCc2cccnc2N(C)C2CCCCC2)cs1")
-5.35
>>> readout_number("CC(C)CC(NC(=O)c1ccco1)c1nnc2ccccn12 (stereo unspecified)")
-6.21
>>> readout_number("Cc1nc(CCCNC(=O)c2c(F)cccc2Br)n[nH]1")
-1.39
